System: Plasmodium falciparum
Experiment: GSK_TCMDC: Inhibition of Plasmodium falciparum Dd2 in whole red blood cells, using parasite LDH activity as an index of growth. Test compounds present at 2uM
Type: functional
One threshold, 40%, splits the recorded Inhibition values: lower ones are y, equal or higher ones are n.

Incoming: For this compound, is Inhibition lower than 40%? `CN1CCN(CCCN(Cc2ccc(-c3cccc(CNCc4ccc5c(c4)OCO5)c3)cc2)C(=O)CCC2CCCC2)CC1.O=C(O)C(F)(F)F`
Outgoing: n

Incoming: Consider the compound `COCc1nc(-c2ccccc2)nc(N2CCN(C(=O)NC(C)C)CC2)c1Cc1ccccc1F` . Is its Inhibition strictly less than 40%?
Outgoing: n

Incoming: Dear reviewer, please state whether `CCOC(=O)c1cnc2cc(N3CCCC3)c(Cl)cc2c1OCC` has Inhibition strictly beneath 40%.
Outgoing: n

Incoming: Field: below-cutoff. Rule: recorded Inhibition strictly less than 40%. Subject: `CC(C)Nc1nc(NC2CCCCC2)nc(N2CCCCCCC2)n1`
Outgoing: n

Incoming: Below 40% on Inhibition? Entry `CC(=O)Nc1ccc(OCCCCCOc2ccc(NC(C)=O)cc2Cl)c(Cl)c1`
Outgoing: y

Incoming: Criterion: Inhibition strictly below 40%. Is it met by O=C(NC1CCC(N2CCC(O)(c3ccc(F)cc3)CC2)CC1)c1cc2ccccc2[nH]1 (stereo unspecified) ?
Outgoing: y

Incoming: Input `CC(C)Cn1c(Sc2ccc(C#N)c([N+](=O)[O-])c2)nnc1-c1cccc(Cl)c1` ; condition: Inhibition strictly below 40%. Does it hold?
Outgoing: n

Incoming: Field: below-cutoff. Rule: recorded Inhibition strictly less than 40%. Subject: `O=C(Nc1ccc(-c2nc3ccccc3[nH]2)cc1)c1ccc(N2CCOCC2)c([N+](=O)[O-])c1`
Outgoing: y

Incoming: Does the reported Inhibition of `O[C@H]1[C@H](OCc2ccc(-c3ccccc3)cc2)CC[C@@H]1N1CCCCC1` stay below 40%?
Outgoing: n

Incoming: Does the reported Inhibition of the following compound sit strictly below 40%? `CS(=O)(=O)O.FC(F)(F)COc1c(CCNCCCCNCCc2ccc3ccccc3c2OCC(F)(F)F)ccc2ccccc12`
Outgoing: n

Incoming: Please state whether Inhibition is below 40% for `CC(=O)Nc1nc(C(=O)Nc2ccc(-c3ccc(-c4nc5cc(F)ccc5[nH]4)cc3)cc2)cs1`
Outgoing: y

Incoming: hey, is Inhibition for `COc1cc(OCCCN(C)Cc2ccc(OC)c(OC)c2)ccc1NC(=O)c1cccc2c(O)c3cccc(F)c3nc12` lower than 40% or not?
Outgoing: n

Incoming: Consider the compound CCCC(C)NC(=O)[C@H]1CNCCN1C(=O)CCCc1ccccc1.O=C(O)C(F)(F)F (stereo partly specified) . Is its Inhibition strictly less than 40%?
Outgoing: n

Incoming: Identify whether the compound `Br.CCCCc1ccc(CCNCCCCCCNCCc2ccc(O)c(O)c2)cc1` records Inhibition below 40%.
Outgoing: y

Incoming: Answer whether the compound `CCN(CCCN1CCCCC1)c1cc(C)nc(Nc2ccc(C)cc2Br)n1.O=C(O)C(F)(F)F` has Inhibition strictly less than 40%
Outgoing: y

Incoming: Dear reviewer, please state whether `C=C(C)CSc1nc2c(c(=O)n1Cc1ccco1)C1(CCCCC1)Cc1ccccc1-2` has Inhibition strictly beneath 40%.
Outgoing: n

Incoming: Given `Cc1cc(N[C@@H](Cc2ccccc2)C(=O)NCc2cccc(F)c2)nc(NCC2CCCCC2)n1.O=C(O)C(F)(F)F` , is recorded Inhibition strictly lower than 40%?
Outgoing: n

Incoming: Strictly below 40%: is that where Inhibition of C[C@@H](C(N)=O)N1CCCCC1c1ccc(OCc2cccc(F)c2)cc1 (stereo partly specified) sits?
Outgoing: n

Incoming: Field: below-cutoff. Rule: recorded Inhibition strictly less than 40%. Subject: `CN(C)Cc1ccc(O)c(-c2ccc(C(C)(C)C)cc2)n1.Cl`
Outgoing: y

Incoming: Dear colleague, could you confirm whether Inhibition of `FC(F)(F)c1ccc2[nH]c(-c3ccc(-c4cccc(CNCc5cnn(-c6ccccc6)n5)c4)cc3)nc2c1.O=C(O)C(F)(F)F` falls below 40%? Thanks.
Outgoing: n

Incoming: Check if Inhibition falls below 40% for `FC(F)(F)c1cccc(CNCCCCCNCc2ccc(Cl)cc2)c1` .
Outgoing: y

Incoming: Determine if O=C(Cc1ccccc1)NC(c1ccco1)c1cc(Cl)c2cccnc2c1O (stereo unspecified) shows Inhibition strictly lower than 40%.
Outgoing: n

Incoming: Inhibition strictly < 40% for this compound? `O=C(NCCc1ccccc1)N(Cc1ccccc1-c1cccc(CNCc2ccc3c(c2)OCO3)c1)C1CCN(Cc2ccccc2)CC1.O=C(O)C(F)(F)F`
Outgoing: n

Incoming: A record lists `COCCOc1ccc(Nc2nccc(-c3c(-c4cccc(NC(=O)c5c(F)cccc5F)c4)nn4ccccc34)n2)cc1F` . Is its Inhibition below 40%?
Outgoing: n

Incoming: Item COc1cccc(C(=O)NC(c2ccc(Cl)cc2Cl)c2cc(Cl)c3cccnc3c2O)c1 (stereo unspecified) : Inhibition beneath 40%, strictly?
Outgoing: n

Incoming: Lab note: Inhibition threshold 40%. Does this compound come in strictly under it? `Oc1ccc2nc(Nc3ccccc3)nc(NCCc3ccccc3)c2c1`
Outgoing: n

Incoming: Is the reported Inhibition for `c1ccc(CN2CCC(NCc3ccc(-c4cncc5ccccc45)cc3)CC2)cc1` strictly below 40%?
Outgoing: y

Incoming: Decide: Inhibition of `CCN1CCC(NCc2ccc(-c3ccc(Cl)s3)cc2)CC1` strictly below 40%?
Outgoing: y

Incoming: Dear colleague, could you confirm whether Inhibition of `CCOc1cc(C(=O)NCCc2ccc(Cl)c(Cl)c2)ccc1-c1nc2cc(Cl)ccc2[nH]1` falls below 40%? Thanks.
Outgoing: n

Incoming: A record lists `CN(C)CCOc1ccc2c(=O)cc(CCc3cccc(F)c3F)n(CC(=O)N(C)Cc3ccc(-c4ccc(C(F)(F)F)cc4)cc3)c2c1.O=C(O)C(O)C(O)C(=O)O` . Is its Inhibition below 40%?
Outgoing: n

Incoming: is_below(Inhibition, 40%) for `Cc1[nH]c(C)c(-c2ccc(OCc3ccc(OC(F)(F)F)cc3)nc2)c(=O)c1Br` ?
Outgoing: n

Incoming: I'd appreciate it if you could check whether `COc1ccccc1Oc1c(N(C)S(=O)(=O)c2ccc(C(C)C)cc2)nc(C(F)(F)F)nc1N(C)S(=O)(=O)c1ccc(C(C)C)cc1` has Inhibition smaller than 40%.
Outgoing: n

Incoming: # TODO verify Inhibition < 40% strictly for this compound: `CCCCCCN1CCC(NCc2cccc3ccccc23)CC1.O=C(O)C(F)(F)F`
Outgoing: y

Incoming: Record `O=C(Nc1ccc2c(c1)CCC2)c1nc(N2CCN(c3ccncc3)CC2)ccc1Cl.O=C(O)C(F)(F)F` : is its Inhibition strictly below 40%?
Outgoing: n

Incoming: hey, is Inhibition for `CS(=O)(=O)c1ccc(CCNCc2ccc(-c3cccc(-c4nc5ccccc5[nH]4)c3)cc2)cc1.O=C(O)C(F)(F)F` lower than 40% or not?
Outgoing: n

* * *

Test system: HepG2
Test: GSK_TCMDC: Percent inhibition of human HepG2 cell line. Test compounds present at 10uM.
Type: functional
Please mark YES if the recorded Inhibition is equal to or greater than 20%, and NO if it falls below.

Incoming: Hi team, for `c1nc(CCNc2nc(Nc3ccc4c(c3)OCO4)nc(NC3CCCC3)n2)c[nH]1` , is the recorded Inhibition at or above 20%?
Outgoing: NO

Incoming: Item `Cl.O=C(Nc1ccc(NC2=NCCN2)cc1)Nc1ccc(NC2=NCCN2)cc1` with Inhibition of 20% or above?
Outgoing: NO

Incoming: Given the entry `O=C(/C=C/c1ccc(Cl)c(Cl)c1)NCCCCCN1CCC(NC(=O)NCCc2ccccc2)CC1` , answer whether its Inhibition meets or surpasses 20%.
Outgoing: YES

Incoming: Check this compound for Inhibition at or above 20%: `O=C(Nc1cccc(F)c1)c1ccc(C(=O)NC2CCN(CC3CCCCC3)CC2)cc1.O=C(O)C(F)(F)F`
Outgoing: YES

Incoming: Does Inhibition meet or surpass 20% for `COc1ccccc1NC(=O)Nc1cccc(-c2ccc(-c3nc4cccc(C)c4[nH]3)s2)c1` ?
Outgoing: NO

Incoming: Kindly determine if Inhibition recorded for `COc1cc(Nc2nc(N)n(C(=O)c3ccc4c(c3)OCO4)n2)cc(OC)c1OC` is above or exactly 20%.
Outgoing: YES

Incoming: Check if Inhibition >= 20% (inclusive). Item: `CC(C)N1CCC(NCc2ccc(-c3ccc(Cl)cc3)cc2)CC1`
Outgoing: YES

Incoming: // inclusive: Inhibition at least 20%? input: `CCN(CC)CCCOc1ccc(Nc2nccc(-c3c(-c4cccc(NC(=O)c5c(F)cccc5F)c4)nn4ccccc34)n2)cc1F`
Outgoing: YES

Incoming: Check if Inhibition >= 20% (inclusive). Item: CC(=NNC(N)=O)C1=C(O)C(c2ccccc2)N(C2CCCCC2)C1=O (centres undefined)
Outgoing: YES
